Here, each record is paired with measured olfactory response index data.
# Test system: Drosophila melanogaster
# assay: olfactory response index (dipstick assay) (fraction of flies (RI; 1 aversion, 0.5 indifferent, 0 attraction)); higher = stronger aversion to the odorant
# conditions: genotype (tubulin-GAL4 x UAS-RNAi line; control = progenitor): obp 57a; odorant concentration: 1% v/v; male
Output: the number by itself.

• CC(C)=CCC/C(C)=C/CO = 0.0811

stdin: Given the compound CCc1cnccn1 , what is its reported olfactory response index?
stdout: 0.114

stdin: Param item = CC(=O)c1ccccc1 ; retrieve measured olfactory response index.
stdout: 0.332

stdin: Quick check: olfactory response index of CC(C)=CCCC(C)=CC=O (mixture of isomers) ?
stdout: 0.215

stdin: Query: olfactory response index; subject: Cc1cnccn1
stdout: 0.238
